test system: DMS 273 small cell lung; experiment: NCI tumour cell line growth inhibition, 48 h
Measurement type: TGI

INSERT INTO assay_data (compound, target_desc, assay_result) VALUES
  ('O=[P+](O)c1cc2ccccc2c2ccccc12', 'DMS 273 small cell lung', '> 100 µM'),
  ('Clc1cccc(N2CCN(CCN3CCc4c([nH]c5ccccc45)C3c3cccnc3)CC2)c1 (stereo unspecified)', 'DMS 273 small cell lung', '> 100 µM'),
  ('OC(C1CO1)C(O)C1CO1 (stereo unspecified)', 'DMS 273 small cell lung', '76.9 µM'),
  ('C/C(=N\NC(=O)c1cccnc1)c1cccc(/C(C)=N/NC(=O)c2cccnc2)n1.CC(=O)[O-].CC(=O)[O-].[Zn+2]', 'DMS 273 small cell lung', '98.1 µM'),
  ('CC(C)(O)[C@@H]1CC[C@@]2(C)CCC[C@H](O)[C@H]2C1', 'DMS 273 small cell lung', '> 100 µM'),
  ('O=C(NC12CC3CC(CC(C3)C1)C2)C(=O)c1c[nH]c2ccc([N+](=O)[O-])cc12', 'DMS 273 small cell lung', '45 µM'),
  ('N#Cc1ccc(Nc2cnc3ccc(N)cc3n2)cc1', 'DMS 273 small cell lung', '> 100 µM'),
  ('O=c1cc(-c2ccccc2)nc(/C=C(\O)c2ccncc2)n1-c1ccccc1', 'DMS 273 small cell lung', '> 100 µM'),
  ('Cc1ccc(S(=O)(=O)C2c3nc4ccccc4cc3-c3nc4ccccc4nc32)cc1 (stereo unspecified)', 'DMS 273 small cell lung', '> 100 µM'),
  ('CN(C(=O)C12C3(C(=O)C(C)(C)C)C4C5(C#N)C3C1(C(=O)C(C)(C)C)C5C42C(=O)C(C)(C)C)C(C)(C)C (stereo unspecified)', 'DMS 273 small cell lung', '> 50 µM'),
  ('C[C@H](N)C(=O)N[C@@H]1[C@H]2C(=C(O)C[C@@H](O)[C@@H]2O)C(=O)O[C@@H]1C', 'DMS 273 small cell lung', '> 100 µM'),
  ('COc1ccc(-c2nnc(-c3c(C)n(C)n(-c4ccccc4)c3=O)o2)cc1', 'DMS 273 small cell lung', '> 100 µM'),
  ('O=C1OC(c2ccc(Cl)cc2)(c2ccc(Cl)cc2)c2c1ccc1ccccc21', 'DMS 273 small cell lung', '> 100 µM'),
  ('CCCCN=C(NC#N)N(Cc1ccccc1)Cc1ccccc1', 'DMS 273 small cell lung', '37.1 µM'),
  ('NC(=O)C(=Cc1ccc(CP(=O)(O)O)cc1)C(N)=O', 'DMS 273 small cell lung', '> 100 µM'),
  ('CCCCCCCC(=O)OCC(C[As](=O)(O)O)OC(=O)CCCCCCC (stereo unspecified)', 'DMS 273 small cell lung', '27.4 µM');
